Protocol details: pKa (pH of midpoint of buffering range) of the product at 20° C.
Endpoint name: pKa

Fill in: pKa of O=S(=O)(O)CC(O)CN1CCN(CC(O)CS(=O)(=O)O)CC1 (centres unmarked) [Example 4, (dihydrate)] is ___
7.85

Do the same for O=S(=O)(O)CC(O)CN(CCO)CCO (centres unmarked) please
7.6

----------
Protocol details: physchem
Endpoint name: pKa
Enter the number alone.

Suppose we examine the compound O=S(=O)(O)CC(O)CNC(CO)(CO)CO (stereo not shown) ; what pKa value has been reported?
7.7
